test system: Staphylococcus aureus; assay: Antibacterial activity against Staphylococcus aureus after 48 hrs by tube dilution method; type: functional
measured-quantity: MIC (µg/mL)

Guide cases for MIC, answers given:
Enquiry: Please report MIC for the following compound: "CCOC(=O)n1c(-c2ccc(C#Cc3ccc4c(c3)C(C)(C)CCS4)cc2)nc2ccccc21"
Return: 500

Enquiry: Please report MIC for the following compound: "CCCn1c(-c2ccc(C#Cc3ccccc3)cc2)nc2ccccc21"
Return: 500

Enquiry: Please report MIC for the following compound: "CCn1c(-c2ccc(C#Cc3ccccc3)cc2)nc2ccccc21"
Return: 500

(1) CCCCOC(=O)n1c(-c2ccc(C#Cc3ccc4c(c3)C(C)(C)CCS4)cc2)nc2ccccc21
(2) Cn1c(-c2ccc(C#Cc3ccc4c(c3)C(C)(C)CCS4)cc2)nc2ccccc21
Enquiry: Of the two listed items, 1 and 2 , which carries the larger MIC figure? Refer to your chosen item by its label in the answer.
Return: 1

----------
test system: Staphylococcus aureus; test: Antibacterial activity against Staphylococcus aureus after 48 hrs by tube dilution method; type: functional
measured-quantity: MIC (µg/mL)

Guide cases for MIC, answers given:
Enquiry: Please report MIC for the following compound: "C(#Cc1ccc(-c2nc3ccccc3[nH]2)cc1)c1ccccc1"
Return: 200

Enquiry: Please report MIC for the following compound: "O=S(=O)(n1c(-c2ccc(C#Cc3ccccc3)cc2)nc2ccccc21)C(F)(F)F"
Return: 500

Enquiry: Please report MIC for the following compound: CC1=C(C(=O)O)N2C(=O)[C@@H](NC(=O)[C@H](N)c3ccccc3)[C@H]2SC1 [CEPHALEXIN ANHYDROUS]
Return: 10

Enquiry: Please report MIC for the following compound: "CCOC(=O)n1c(-c2ccc(C#Cc3ccccc3)cc2)nc2ccccc21"
Return: 500

(P) Cn1c(-c2ccc(C#Cc3ccccc3)cc2)nc2ccccc21
(Q) Cc1ccc(S(=O)(=O)n2c(-c3ccc(C#Cc4ccccc4)cc3)nc3ccccc32)cc1
Enquiry: Of the two listed items, P and Q , which carries the larger MIC figure? Refer to your chosen item by its label in the answer.
Return: P

(a) CC1(C)CCSc2ccc(C#Cc3ccc(-c4nc5ccccc5n4S(=O)(=O)C(F)(F)F)cc3)cc21
(b) COC(=O)n1c(-c2ccc(C#Cc3ccc4c(c3)C(C)(C)CCS4)cc2)nc2ccccc21
Enquiry: Pick one, a or b : lowest reported MIC. Refer to your chosen item by its label in the answer.
Return: b

----------
biological target: Tyrosine-protein phosphatase non-receptor type 1 (Homo sapiens) (UniProt P18031); assay: Inhibition of human recombinant PTP1B at 30 uM after 30 mins relative to control
Sequence (P18031 whole entry): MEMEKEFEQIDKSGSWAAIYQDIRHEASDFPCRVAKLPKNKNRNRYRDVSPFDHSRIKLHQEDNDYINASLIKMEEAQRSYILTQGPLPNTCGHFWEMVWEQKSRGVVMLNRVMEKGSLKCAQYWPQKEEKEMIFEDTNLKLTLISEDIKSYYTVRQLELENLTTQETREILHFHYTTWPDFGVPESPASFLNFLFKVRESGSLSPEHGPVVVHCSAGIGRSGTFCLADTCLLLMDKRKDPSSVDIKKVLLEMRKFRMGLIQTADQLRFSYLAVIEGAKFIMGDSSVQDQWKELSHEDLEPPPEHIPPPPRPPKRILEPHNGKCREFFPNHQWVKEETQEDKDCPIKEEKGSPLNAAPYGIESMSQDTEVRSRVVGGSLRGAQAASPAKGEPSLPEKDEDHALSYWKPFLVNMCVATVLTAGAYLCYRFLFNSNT
measured-quantity: inhibition (%)

(1) O=S(=O)(n1c(-c2ccc(C#Cc3ccccc3)cc2)nc2ccccc21)C(F)(F)F
(2) CC(C)COC(=O)n1c(-c2ccc(C#Cc3ccccc3)cc2)nc2ccccc21
(3) COC(=O)n1c(-c2ccc(C#Cc3ccc4c(c3)C(C)(C)CCS4)cc2)nc2ccccc21
(4) CCOC(=O)n1c(-c2ccc(C#Cc3ccccc3)cc2)nc2ccccc21
(5) CCCCOC(=O)n1c(-c2ccc(C#Cc3ccccc3)cc2)nc2ccccc21
Enquiry: Quick one: which order do the items above go in by inhibition, smallest to largest? I'd appreciate it if you listed the labels in the requested order.
Return: 1, 3, 5, 2, 4
(1: 0%, 3: 0.97%, 5: 5.84%, 2: 17.4%, 4: 27.7%)

(I) Cc1ccc(S(=O)(=O)n2c(-c3ccc(C#Cc4ccccc4)cc3)nc3ccccc32)cc1
(II) CCCn1c(-c2ccc(C#Cc3ccc4c(c3)C(C)(C)CCS4)cc2)nc2ccccc21
Enquiry: Of the two listed items, I and II , which carries the larger inhibition figure? Refer to your chosen item by its label in the answer.
Return: II
(II: 7.38%, I: 0%)

(a) CCCn1c(-c2ccc(C#Cc3ccccc3)cc2)nc2ccccc21
(b) Cn1c(-c2ccc(C#Cc3ccccc3)cc2)nc2ccccc21
Enquiry: Pick one, a or b : lowest reported inhibition. Refer to your chosen item by its label in the answer.
Return: a

----------
molecular target: Phosphodiesterase 4 (Homo sapiens) (UniProt P27815+Q08499+Q07343+Q08493); assay: Inhibition of human PDE4 at 1 uM after 20 mins; type: protein assay
measured-quantity: inhibition (%)

Enquiry: Please report inhibition for the following compound: "CCOC(=O)n1c(-c2ccc(C#Cc3ccc4c(c3)C(C)(C)CCS4)cc2)nc2ccccc21"
Return: 16.9

Enquiry: Please report inhibition for the following compound: "CCOC(=O)n1c(-c2ccc(C#Cc3ccccc3)cc2)nc2ccccc21"
Return: 16.5

Enquiry: Please report inhibition for the following compound: "Cn1c(-c2ccc(C#Cc3ccccc3)cc2)nc2ccccc21"
Return: 22.3

Enquiry: Please report inhibition for the following compound: "CCCCn1c(-c2ccc(C#Cc3ccccc3)cc2)nc2ccccc21"
Return: 19.4

Enquiry: Please report inhibition for the following compound: "C(#Cc1ccc(-c2nc3ccccc3[nH]2)cc1)c1ccccc1"
Return: 3.4

Enquiry: Please report inhibition for the following compound: "COC(=O)n1c(-c2ccc(C#Cc3ccc4c(c3)C(C)(C)CCS4)cc2)nc2ccccc21"
Return: 17.9

(A) CCCCn1c(-c2ccc(C#Cc3ccc4c(c3)C(C)(C)CCS4)cc2)nc2ccccc21
(B) CCn1c(-c2ccc(C#Cc3ccccc3)cc2)nc2ccccc21
Enquiry: Pick one, A or B : lowest reported inhibition. Refer to your chosen item by its label in the answer.
Return: B

----------
molecular target: Dipeptidyl peptidase 4 (Homo sapiens) (UniProt P27487); experiment: Inhibition of human recombinant DPP4 at 0.3 uM after 30 mins relative to control
Sequence (P27487 whole entry, looked up): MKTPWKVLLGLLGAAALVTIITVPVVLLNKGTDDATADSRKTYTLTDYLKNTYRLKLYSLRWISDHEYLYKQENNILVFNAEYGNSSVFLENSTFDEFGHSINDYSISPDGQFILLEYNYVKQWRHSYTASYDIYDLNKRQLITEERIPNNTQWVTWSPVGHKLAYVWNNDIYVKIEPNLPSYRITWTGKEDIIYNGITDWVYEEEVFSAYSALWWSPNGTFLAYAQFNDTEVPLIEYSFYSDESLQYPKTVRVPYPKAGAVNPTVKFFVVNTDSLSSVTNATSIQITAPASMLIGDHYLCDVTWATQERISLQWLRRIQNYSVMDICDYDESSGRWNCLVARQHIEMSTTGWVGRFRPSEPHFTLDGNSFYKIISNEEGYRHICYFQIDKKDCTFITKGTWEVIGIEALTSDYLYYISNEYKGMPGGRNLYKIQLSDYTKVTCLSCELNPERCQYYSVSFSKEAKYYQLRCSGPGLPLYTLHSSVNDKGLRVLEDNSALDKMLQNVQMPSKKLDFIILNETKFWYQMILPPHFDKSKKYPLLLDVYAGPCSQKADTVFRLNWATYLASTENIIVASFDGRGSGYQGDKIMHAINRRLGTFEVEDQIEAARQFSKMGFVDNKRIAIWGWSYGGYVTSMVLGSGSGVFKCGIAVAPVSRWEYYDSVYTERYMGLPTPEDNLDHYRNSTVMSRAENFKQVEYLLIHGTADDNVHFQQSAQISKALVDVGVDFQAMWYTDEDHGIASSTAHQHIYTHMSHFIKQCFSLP
measured-quantity: inhibition (%)

Enquiry: Please report inhibition for the following compound: "CCn1c(-c2ccc(C#Cc3ccccc3)cc2)nc2ccccc21"
Return: 0

Enquiry: Please report inhibition for the following compound: "CC(C)COC(=O)n1c(-c2ccc(C#Cc3ccccc3)cc2)nc2ccccc21"
Return: 0

Enquiry: Please report inhibition for the following compound: "CC1(C)CCSc2ccc(C#Cc3ccc(-c4nc5ccccc5n4S(=O)(=O)C(F)(F)F)cc3)cc21"
Return: 9

Enquiry: Please report inhibition for the following compound: "CC1(C)CCSc2ccc(C#Cc3ccc(-c4nc5ccccc5[nH]4)cc3)cc21"
Return: 0

Enquiry: Please report inhibition for the following compound: "Cn1c(-c2ccc(C#Cc3ccc4c(c3)C(C)(C)CCS4)cc2)nc2ccccc21"
Return: 0

(a) Cc1ccc(S(=O)(=O)n2c(-c3ccc(C#Cc4ccccc4)cc3)nc3ccccc32)cc1
(b) Cn1c(-c2ccc(C#Cc3ccccc3)cc2)nc2ccccc21
Enquiry: Of the two listed items, a and b , which carries the larger inhibition figure? Refer to your chosen item by its label in the answer.
Return: b
(b: 9%, a: 0%)

(A) CCn1c(-c2ccc(C#Cc3ccc4c(c3)C(C)(C)CCS4)cc2)nc2ccccc21
(B) CCOC(=O)n1c(-c2ccc(C#Cc3ccc4c(c3)C(C)(C)CCS4)cc2)nc2ccccc21
Enquiry: Of the two listed items, A and B , which carries the larger inhibition figure? Refer to your chosen item by its label in the answer.
Return: B

----------
system: Staphylococcus aureus; test: Antibacterial activity against Staphylococcus aureus after 48 hrs by tube dilution method; assay type: functional
measured-quantity: MIC (µg/mL)

Enquiry: Please report MIC for the following molecule: "CC(C)COC(=O)n1c(-c2ccc(C#Cc3ccccc3)cc2)nc2ccccc21"
Return: 500

Enquiry: Please report MIC for the following molecule: "CCCn1c(-c2ccc(C#Cc3ccc4c(c3)C(C)(C)CCS4)cc2)nc2ccccc21"
Return: 500

Enquiry: Please report MIC for the following molecule: "CCn1c(-c2ccc(C#Cc3ccc4c(c3)C(C)(C)CCS4)cc2)nc2ccccc21"
Return: 200

(P) CCCCOC(=O)n1c(-c2ccc(C#Cc3ccccc3)cc2)nc2ccccc21
(Q) CC1(C)CCSc2ccc(C#Cc3ccc(-c4nc5ccccc5[nH]4)cc3)cc21
Enquiry: Of the two listed items, P and Q , which carries the larger MIC figure? Refer to your chosen item by its label in the answer.
Return: P
(P: 500 µg/mL, Q: 200 µg/mL)

(A) COC(=O)n1c(-c2ccc(C#Cc3ccccc3)cc2)nc2ccccc21
(B) CCCCn1c(-c2ccc(C#Cc3ccc4c(c3)C(C)(C)CCS4)cc2)nc2ccccc21
Enquiry: Of the two listed items, A and B , which carries the larger MIC figure? Refer to your chosen item by its label in the answer.
Return: A
(A: 500 µg/mL, B: 200 µg/mL)

----------
molecular target: Dipeptidyl peptidase 4 (Homo sapiens); assay: Inhibition of human recombinant DPP4 at 0.3 uM after 30 mins relative to control
measured-quantity: inhibition (%)

Enquiry: State, for Dipeptidyl peptidase 4 (Homo sapiens), measured inhibition of the molecule listed here: "CCCCOC(=O)n1c(-c2ccc(C#Cc3ccccc3)cc2)nc2ccccc21"
Return: 0

Enquiry: State, for Dipeptidyl peptidase 4 (Homo sapiens), measured inhibition of the molecule listed here: "CCCn1c(-c2ccc(C#Cc3ccc4c(c3)C(C)(C)CCS4)cc2)nc2ccccc21"
Return: 0

Enquiry: State, for Dipeptidyl peptidase 4 (Homo sapiens), measured inhibition of the molecule listed here: "O=S(=O)(n1c(-c2ccc(C#Cc3ccccc3)cc2)nc2ccccc21)C(F)(F)F"
Return: 0

Enquiry: State, for Dipeptidyl peptidase 4 (Homo sapiens), measured inhibition of the molecule listed here: "CCCn1c(-c2ccc(C#Cc3ccccc3)cc2)nc2ccccc21"
Return: 0

Enquiry: State, for Dipeptidyl peptidase 4 (Homo sapiens), measured inhibition of the molecule listed here: "C(#Cc1ccc(-c2nc3ccccc3[nH]2)cc1)c1ccccc1"
Return: 0

Ref: ChEMBL document CHEMBL1156681
